# Tested On: phosphorylated EGFR (pEGFR) (Homo sapiens, UniProt P00533)
# Construct: performed to measure phosphorylated EGFR levels using A431 cells; endogenous in cells
# Sequence (P00533 25-1210): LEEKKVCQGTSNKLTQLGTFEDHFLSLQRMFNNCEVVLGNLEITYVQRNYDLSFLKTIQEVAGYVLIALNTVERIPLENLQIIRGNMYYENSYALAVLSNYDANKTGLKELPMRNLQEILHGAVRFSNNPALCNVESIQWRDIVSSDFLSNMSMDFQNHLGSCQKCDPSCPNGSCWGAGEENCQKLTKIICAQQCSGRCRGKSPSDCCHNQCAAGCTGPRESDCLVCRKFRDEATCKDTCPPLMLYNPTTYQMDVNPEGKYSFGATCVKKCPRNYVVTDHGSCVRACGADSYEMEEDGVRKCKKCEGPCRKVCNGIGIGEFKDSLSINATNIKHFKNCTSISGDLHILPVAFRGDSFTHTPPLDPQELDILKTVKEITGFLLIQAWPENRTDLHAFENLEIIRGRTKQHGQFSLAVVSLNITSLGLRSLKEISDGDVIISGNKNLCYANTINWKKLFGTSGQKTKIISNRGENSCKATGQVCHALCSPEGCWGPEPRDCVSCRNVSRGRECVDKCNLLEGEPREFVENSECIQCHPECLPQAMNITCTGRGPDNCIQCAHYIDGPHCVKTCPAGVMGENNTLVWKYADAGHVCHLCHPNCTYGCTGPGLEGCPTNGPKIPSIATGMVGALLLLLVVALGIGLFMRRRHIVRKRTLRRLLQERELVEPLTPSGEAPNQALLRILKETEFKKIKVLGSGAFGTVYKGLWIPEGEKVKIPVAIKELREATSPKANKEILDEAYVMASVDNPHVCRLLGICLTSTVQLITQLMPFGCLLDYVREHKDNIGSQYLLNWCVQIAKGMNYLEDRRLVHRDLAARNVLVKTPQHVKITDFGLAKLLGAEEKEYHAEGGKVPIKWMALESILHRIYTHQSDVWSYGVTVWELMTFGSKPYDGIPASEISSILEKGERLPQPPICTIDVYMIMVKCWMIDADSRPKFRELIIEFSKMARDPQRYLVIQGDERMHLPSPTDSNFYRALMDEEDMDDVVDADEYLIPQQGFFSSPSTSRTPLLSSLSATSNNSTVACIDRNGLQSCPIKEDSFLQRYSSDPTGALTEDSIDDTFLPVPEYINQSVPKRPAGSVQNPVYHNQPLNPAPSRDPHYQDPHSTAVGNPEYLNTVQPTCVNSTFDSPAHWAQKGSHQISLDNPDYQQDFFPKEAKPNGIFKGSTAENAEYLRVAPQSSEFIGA
# Test Method Notes: Detection of phosphorylated EGFR (pEGFR) in EGF-stimulated A431 cells (AlphaLISA)
# Details: A431 cells (10% FBS), 4 hours incubation, EGF 30 ng/mL for 10 minutes
pIC50: −log10 of the molar value.
# cutoff 6 applies to pIC50; >= gives class 1, < gives class 0

- Compound: "C=CC(=O)N1CCN(c2ccc3ncnc(Nc4ccc(Cc5ccn6ncnc6c5)c(C)c4)c3c2F)C[C@H]1C"
  Tested On: "phosphorylated EGFR (pEGFR) (Homo sapiens, UniProt P00533)"
  Assigned Category: "class 0"
- Compound: "C=CC(=O)N1CCN(c2ccc3ncnc(Nc4ccc(Oc5ccc(C)nc5)c(C)c4)c3n2)CC1"
  Tested On: "phosphorylated EGFR (pEGFR) (Homo sapiens, UniProt P00533)"
  Assigned Category: "class 1"
- Compound: "C=CC(=O)N1CC2CC(C1)N2c1ccc2ncnc(Nc3ccc(Oc4ccn5ncnc5c4)c(C)c3)c2n1"
  Tested On: "phosphorylated EGFR (pEGFR) (Homo sapiens, UniProt P00533)"
  Assigned Category: "class 1"
- Compound: "C=CC(=O)N1CCN(c2ccc3ncnc(Nc4ccc(Oc5ccn6ncnc6c5)c(C)c4)c3c2F)C[C@H]1C"
  Tested On: "phosphorylated EGFR (pEGFR) (Homo sapiens, UniProt P00533)"
  Assigned Category: "class 0"
- Compound: "C=CC(=O)N1CCN(c2ccc3ncnc(Nc4ccc(Oc5ccn6ncnc6c5)c(C)c4)c3n2)CC1"
  Tested On: "phosphorylated EGFR (pEGFR) (Homo sapiens, UniProt P00533)"
  Assigned Category: "class 1"
- Compound: "C=CC(=O)N1CCN(c2ccc3ncnc(Nc4ccc(Oc5ccn6ncnc6c5)c(C)c4)c3c2F)C(C)C1 (stereo not shown)"
  Tested On: "phosphorylated EGFR (pEGFR) (Homo sapiens, UniProt P00533)"
  Assigned Category: "class 0"
